- experiment-notes: Transport across Caco-2 cell monolayers
- Assay type: in vitro ADME, human
- details: human; Caco-2, 50 μg/mL, basolateral to apical, 60 min
property-name: Papp B→A at 60 min, 50 μg/mL (×10⁻⁶ cm/s)

[[record]]
compound = "O=C(O[C@@H]1Cc2c(O)cc(O)cc2O[C@@H]1c1cc(O)c(O)c(O)c1)c1cc(O)c(O)c(O)c1 [EGCG, (−)-epigallocatechin-3-gallate]"
property_name = "Papp B→A at 60 min, 50 μg/mL"
recorded_result = 0.083

[[record]]
compound = "O=C(O[C@@H]1Cc2c(OCc3cnnn3[C@@H]3O[C@H](CO)[C@@H](O)[C@H](O)[C@H]3O)cc(O)cc2O[C@@H]1c1cc(O)c(O)c(O)c1)c1cc(O)c(O)c(O)c1"
property_name = "Papp B→A at 60 min, 50 μg/mL"
recorded_result = 0.39


---

- experiment-notes: Transport across Caco-2 cell monolayers
- Assay type: in vitro ADME, human
- details: human; Caco-2, 50 μg/mL, basolateral to apical, 30 min
Let's look at some compounds and their measured Papp B→A at 30 min, 50 μg/mL.
property-name: Papp B→A at 30 min, 50 μg/mL (×10⁻⁶ cm/s)

[[record]]
compound = "O=C(O[C@@H]1Cc2c(O)cc(O)cc2O[C@@H]1c1cc(O)c(O)c(O)c1)c1cc(O)c(O)c(O)c1 [EGCG, (−)-epigallocatechin-3-gallate]"
property_name = "Papp B→A at 30 min, 50 μg/mL"
recorded_result = 0.89

[[record]]
compound = "O=C(O[C@@H]1Cc2c(OCc3cnnn3[C@@H]3O[C@H](CO)[C@@H](O)[C@H](O)[C@H]3O)cc(O)cc2O[C@@H]1c1cc(O)c(O)c(O)c1)c1cc(O)c(O)c(O)c1"
property_name = "Papp B→A at 30 min, 50 μg/mL"
recorded_result = 0.83

